The reported measurements were obtained from patent US7135466B2.

- SYSTEM NAME: c-kit (Homo sapiens)
- Construct: MO7e (human megakaryocytic leukemia cell line) which had been arrested for 20 hr; endogenous in cells; host or cells: MO7e human megakaryocytic leukemia cell line
- Sequence (P10721 26-976): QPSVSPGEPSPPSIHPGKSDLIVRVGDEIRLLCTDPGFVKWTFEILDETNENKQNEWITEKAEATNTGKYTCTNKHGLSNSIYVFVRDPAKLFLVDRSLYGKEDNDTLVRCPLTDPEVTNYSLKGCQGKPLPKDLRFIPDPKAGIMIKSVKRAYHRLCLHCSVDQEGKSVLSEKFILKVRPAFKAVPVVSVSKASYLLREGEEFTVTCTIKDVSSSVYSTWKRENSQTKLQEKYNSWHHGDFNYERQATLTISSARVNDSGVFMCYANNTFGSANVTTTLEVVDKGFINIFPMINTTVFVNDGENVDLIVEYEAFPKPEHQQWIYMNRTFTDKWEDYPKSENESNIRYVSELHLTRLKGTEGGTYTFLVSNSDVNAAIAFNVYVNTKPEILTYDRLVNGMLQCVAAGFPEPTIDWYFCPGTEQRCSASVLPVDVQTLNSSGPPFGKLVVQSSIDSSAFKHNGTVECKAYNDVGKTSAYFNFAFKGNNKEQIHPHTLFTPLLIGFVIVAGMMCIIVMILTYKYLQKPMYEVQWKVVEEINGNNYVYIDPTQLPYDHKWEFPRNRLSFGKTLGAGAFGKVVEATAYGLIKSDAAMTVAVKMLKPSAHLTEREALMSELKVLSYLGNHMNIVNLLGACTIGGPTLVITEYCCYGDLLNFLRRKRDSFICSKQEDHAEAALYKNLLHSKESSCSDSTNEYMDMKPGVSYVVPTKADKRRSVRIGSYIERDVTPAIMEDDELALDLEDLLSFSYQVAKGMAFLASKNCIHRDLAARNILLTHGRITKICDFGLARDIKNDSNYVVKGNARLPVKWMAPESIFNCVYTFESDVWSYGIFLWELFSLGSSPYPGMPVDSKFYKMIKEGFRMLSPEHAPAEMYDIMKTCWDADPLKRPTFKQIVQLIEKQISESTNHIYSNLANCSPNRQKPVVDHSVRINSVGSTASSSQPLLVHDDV
- TEST: Inhibitory activity against c-kit autophosphorylation (MO7e cells, h-SCF)
- Format: cell-based
- MEASUREMENT SETUP: Mo7e, figure in parentheses in −( ); at 1000 nM
MEASURED METRIC: inhibition at 1 µM (%)

Observe how each entry below is paired with its result.
[
  {
    "COMPOUND": "COc1cc2nccc(Oc3ccc(NC(=S)NC(=O)c4ccccc4C(F)(F)F)c(F)c3)c2cc1OC",
    "U": "%",
    "inhibition at 1 µM": 38
  },
  {
    "COMPOUND": "COc1cc2ncnc(Oc3ccc(NC(=O)OC(C)c4ccccc4Cl)cc3)c2cc1OC (centres unmarked)",
    "U": "%",
    "inhibition at 1 µM": 48
  },
  {
    "COMPOUND": "COc1cc2ncnc(Oc3ccc(NC(=S)NC(=O)c4ccc(C)cc4)cc3)c2cc1OC",
    "U": "%",
    "inhibition at 1 µM": 30
  },
  {
    "COMPOUND": "COc1cc2nccc(Oc3ccc(NC(=S)NC(=O)c4ccc([N+](=O)[O-])cc4)cc3)c2cc1OC",
    "U": "%",
    "inhibition at 1 µM": 35
  },
  {
    "COMPOUND": "COc1cc2ncnc(Oc3ccc(NC(=S)NC(=O)c4ccccc4)cc3)c2cc1OC",
    "U": "%",
    "inhibition at 1 µM": 31
  }
]

(A) CCc1ccc(C(=O)NC(=S)Nc2ccc(Oc3ccnc4cc(OC)c(OC)cc34)cc2F)cc1
(B) COc1cc2nccc(Oc3ccc(NC(=S)NC(=O)c4ccccc4Cl)c(Cl)c3)c2cc1OC
In: Input pair: A , B . Output: entry with lower inhibition at 1 µM. Identify your pick by its label.
Out: B

(A) COc1cc2nccc(Oc3ccc(NC(=S)NC(=O)c4ccccc4OC)cc3)c2cc1OC
(B) COc1cc2nccc(Oc3ccc(NC(=S)NC(=O)c4ccc(I)cc4)cc3Cl)c2cc1OC
(C) CCCCCCCCCCCCCCCCCCOC(=O)Nc1ccc(Oc2ccnc3cc(OC)c(OC)cc23)c(C)c1C
(D) COc1cc2ncnc(Oc3ccc(NC(=S)NC(=O)c4ccc(Cl)cc4Cl)cc3)c2cc1OC
In: # rank by inhibition at 1 µM, ascending (min first) List each label, following the requested order.
Out: C, D, A, B
(C: 10%, D: 16%, A: 27%, B: 47%)

(1) COc1ccc(OC)c(COC(=O)Nc2ccc(Oc3ncnc4cc(OC)c(OC)cc34)cc2Cl)c1
(2) COc1cc2nccc(Oc3ccc(NC(=S)NC(=O)c4c(F)cccc4F)cc3Cl)c2cc1OC
(3) COc1cc2nccc(Oc3ccc(NC(=S)NC(=O)c4ccco4)c(F)c3)c2cc1OC
(4) COc1cc2nccc(Oc3ccc(NC(=S)NC(=O)c4ccccc4OC)c(Cl)c3)c2cc1OC
In: Could you please sort these 4 entries by inhibition at 1 µM from high to low? List each label, following the requested order.
Out: 1, 3, 2, 4

(a) COc1cc2nccc(Oc3ccc(NC(=S)NC(=O)c4ccc(F)cc4)c(C)c3)c2cc1OC
(b) COc1cc2nccc(Oc3ccc(NC(=S)NC(=O)c4ccccc4Cl)c(C)c3)c2cc1OC
(c) COc1cc2nccc(Oc3ccc(S(=O)(=O)CCOc4ccc(Cl)cc4Cl)cc3)c2cc1OC
In: Could you please sort these 3 entries by inhibition at 1 µM from high to low? List each label, following the requested order.
Out: a, c, b

(A) COc1cc2nccc(Oc3ccc(NC(=S)NC(=O)c4ccccc4Cl)c(F)c3)c2cc1OC
(B) COc1cc2nccc(Oc3cc(C)c(NCCCOc4ccccc4C)cc3C)c2cc1OC
In: Input pair: A , B . Output: entry with lower inhibition at 1 µM. Identify your pick by its label.
Out: B
(B: 28%, A: 40%)

(I) COc1cc2nccc(Oc3ccc(NC(=S)NC(=O)c4ccccc4OC)c(F)c3)c2cc1OC
(II) COc1cc2nccc(Oc3ccc(NC(=S)NC(=O)c4ccc(-c5ccccc5)cc4)cc3F)c2cc1OC
(III) COc1cc2nccc(Oc3ccc(NC(=S)NC(=O)c4c(Cl)cccc4Cl)cc3Cl)c2cc1OC
In: # rank by inhibition at 1 µM, ascending (min first) List each label, following the requested order.
Out: III, II, I
(III: 10%, II: 20%, I: 32%)

(I) COc1cc2nccc(Oc3cc(C)c(NC(=O)OC(C)c4cccc(Br)c4)cc3C)c2cc1OC (centres unmarked)
(II) COc1cc2ncnc(Oc3ccc(NC(=S)NC(=O)c4ccc(CCl)cc4)cc3)c2cc1OC
In: Input pair: I , II . Output: entry with lower inhibition at 1 µM. Identify your pick by its label.
Out: II
(II: 16%, I: 31%)

(a) COc1cc2nccc(Oc3ccc(S(=O)(=O)CCOc4ccc(C)c(C)c4)cc3)c2cc1OC
(b) COc1cc2nccc(Oc3ccc(NC(=S)NC(=O)c4cccc(F)c4)c(C)c3)c2cc1OC
In: Input pair: a , b . Output: entry with lower inhibition at 1 µM. Identify your pick by its label.
Out: a
